test system: Acinetobacter baumannii ATCC17961; assay: Antimicrobial susceptibility testing: 90% growth inhibitory concentration (IC90) determination; assay type: cell-based; settings: Acinetobacter baumannii ATCC17961; Iso-Sensitest broth; growth by OD 600 nm over 16 h; 90% growth inhibitory concentration; read-out: ATCC 17961 IC90
Structures can show the parent of a compound that is named as a salt.
Experimental endpoint: IC90 (µM)

>>> value("CCNc1ccc(-n2cc(-c3cnc(C(=O)Nc4ccc(C(=O)N5CCN(C(=O)C6CC[N+](C)(C)CC6)CC5)c(Cl)c4)n3C)c(C(F)(F)F)n2)nc1 [Example E3, formate]")
0.39
>>> value("Cn1c(-c2cn(-c3ccc(N)cn3)nc2C(F)(F)F)cnc1C(=O)Nc1ccc(C(=O)N2CCN(C(=O)[C@H]3CC[N+](C)(C)C[C@@H]3O)CC2)c(Cl)c1 (stereo in doubt) [Example D8, formate]")
0.23
>>> value("Cn1c(-c2cn(-c3ncccn3)nc2C(F)(F)F)cnc1C(=O)Nc1ccc(C(=O)N2CCN(C(=O)[C@@H]3C[C@@H](O)C[N+]3(C)C)CC2)c(Cl)c1 [Example B2, formate]")
1.6
>>> value("Cn1c(-c2cn(-c3ccc([N+](=O)[O-])cn3)nc2C(F)(F)F)cnc1C(=O)Nc1ccc(C(=O)N2CCN(C(=O)[C@@H]3[C@@H](O)CC[N+]3(C)C)CC2)c(Cl)c1 [Example B7, formate]")
1.6
>>> value("Cn1c(-c2cn(-c3ncccn3)nc2C(F)(F)F)cnc1C(=O)Nc1ccc(C(=O)N2CCN(C(=O)C3CC[N+](C)(C)CC3O)CC2)c(Cl)c1 (stereo not shown) [Example B4, formate]")
1.9
>>> value("Cn1c(-c2cn(-c3ccc(N)cn3)nc2C(F)F)cnc1C(=O)Nc1ccc(C(=O)N2CCN(C(=O)C3CC[N+](C)(C)CC3)CC2)c(Cl)c1 [Example A5, 2,2,2-trifluoroacetate]")
0.76

(A) Cn1c(-c2cn(-c3ncc(N)cc3F)nc2C(F)(F)F)cnc1C(=O)Nc1ccc(C(=O)N2CCN(C(=O)C3CC[N+](C)(C)CC3)CC2)c(Cl)c1 [Example A8]
(B) Cn1c(-c2cn(-c3ccc(N)cn3)nc2C(F)(F)F)cnc1C(=O)Nc1ccc(C(=O)N2CCN(C(=O)C[N+]3(C)CCC(O)C3)CC2)c(Cl)c1 (stereo not shown) [Example D11, formate]
Which value of IC90 is greater, the one for A or the one for B ? Lab log: write the label of the selected item as the result.
A
